Experiment: Phase 1 part A: PK after single and multiple once-daily oral doses
Type: in vivo, human
Details: human, plasma, oral, 40 mg, Day 30, 40 mg once daily, White; mean (CV%); read-out: Cmin
experimental endpoint: concentration at 30 day (ng/mL)
A number alone suffices; assume ng/mL.

Request: Fill in the blank: the reported concentration at 30 day of Cn1c(=O)oc2ccc(-c3ccc(C[C@@H](C#N)NC(=O)[C@@H]4CNCCCO4)cc3)cc21 is ____.
Response: 149

###

Test: Phase 1 part A: PK after single and multiple once-daily oral doses
Format: in vivo, human
Conditions: human, plasma, po, 25 mg, Day 30, 25 mg once daily, Japanese; mean (CV%)
experimental endpoint: AUC(0-inf) (ng·h/mL)
A number alone suffices; assume ng·h/mL.

Request: Fill in the blank: the reported AUC(0-inf) of Cn1c(=O)oc2ccc(-c3ccc(C[C@@H](C#N)NC(=O)[C@@H]4CNCCCO4)cc3)cc21 [Brensocatib] is ____.
Response: 7890

The reported numbers originate from paper PMC9322451.
